biological target: α7–5HT3 mutant chimeric channels (Homo sapiens, UniProt P36544, S172L); experiment: cell-based
property: EC50

(Q) Requested read-out: EC50. Entry: COC(=O)[C@H]1[C@@H](OC(=O)c2ccccc2)C[C@@H]2CC[C@H]1N2C
(A) > 30 µM

====

target: coca-5HT3 (α7(L141G,G175K,Y210F,Y217F)–5HT3) (Homo sapiens, UniProt P36544, G175K/L141G/Y210F/Y217F); assay: Membrane potential assay, coca-5HT3 in HEK293; settings: coca-5HT3; conc 0.123 uM; ED Fig. 2c
Sequence (P36544 23-224 L141G/G175K/Y210F/Y217F): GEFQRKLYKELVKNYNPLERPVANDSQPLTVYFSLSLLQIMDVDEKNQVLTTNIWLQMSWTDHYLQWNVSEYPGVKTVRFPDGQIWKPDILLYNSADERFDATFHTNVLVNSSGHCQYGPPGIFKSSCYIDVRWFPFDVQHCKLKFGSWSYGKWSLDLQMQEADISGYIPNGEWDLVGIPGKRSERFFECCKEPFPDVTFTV
Sequence (P23979 242-489, further chain): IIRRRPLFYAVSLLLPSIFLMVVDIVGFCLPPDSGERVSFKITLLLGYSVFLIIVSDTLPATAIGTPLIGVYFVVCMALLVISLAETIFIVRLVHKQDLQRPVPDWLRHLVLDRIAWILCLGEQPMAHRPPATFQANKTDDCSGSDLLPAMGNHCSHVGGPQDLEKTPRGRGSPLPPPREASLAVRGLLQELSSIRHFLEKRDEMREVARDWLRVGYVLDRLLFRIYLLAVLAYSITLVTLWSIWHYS
Assign Response to each entry below.
// print number alone

(Q) Requested read-out: Response. Entry: CN1CCC[C@H]1c1cccnc1 [nicotine]
(A) 0.216

(Q) What Response value was documented for this compound, CC(=O)Oc1ccc2c3c1O[C@H]1[C@@H](OC(C)=O)C=C[C@H]4[C@@H](C2)N(C)CC[C@@]341 [heroin] ?
(A) 0.046

(Q) Would you mind telling me what Response value was observed for CN1CC[C@]23c4c5ccc(O)c4O[C@H]2[C@@H](O)C=C[C@H]3[C@H]1C5 [morphine] ?
(A) 0.114

(Q) What measured Response goes with CN[C@@H](C)Cc1ccccc1 [methamphetamine] ?
(A) 0.256

(Q) Look at this compound and give its reported Response. COC(=O)[C@H]1[C@@H](OC(=O)c2ccccc2)C[C@@H]2CC[C@H]1N2C [cocaine]
(A) 0.063

(Q) GET /values?readout=Response&item= COc1ccc2c3c1O[C@H]1C(=O)CC[C@@]4(O)[C@@H](C2)N(C)CC[C@]314 [oxycodone]
(A) 0.086

(Q) Data request, read-out Response, for CC(N)Cc1ccccc1 (stereo not shown) [amphetamine]
(A) 0.058

====

target: α7–5HT3 mutant chimeric channels (Homo sapiens, UniProt P36544, S170N); test: cell-based
property: EC50

(Q) Query: EC50; subject: COC(=O)[C@H]1[C@@H](OC(=O)c2ccccc2)C[C@@H]2CC[C@H]1N2C
(A) > 30 µM

====

test system: α7–5HT3 mutant chimeric channels; assay: cell-based; assay type: cell-based, human α7 nAChR LBD, mouse 5HT3 IPD; conditions: sheet 1e; single determinations; read-out: EC50 at a75HT3 L141G
property: EC50
Put down the number, then write its unit next to it.

(Q) Name the reported EC50 value associated with the molecule COC(=O)[C@H]1[C@@H](OC(=O)c2ccccc2)C[C@@H]2CC[C@H]1N2C
(A) 2350 nM

====

target: α7–5HT3 mutant chimeric channels (Homo sapiens, UniProt P36544, L141P); assay: cell-based; type: cell-based, human α7 nAChR LBD, mouse 5HT3 IPD
pEC50: −log10 of the molar value.
property: pEC50

(Q) Using the record for COC(=O)[C@H]1[C@@H](OC(=O)c2ccccc2)C[C@@H]2CC[C@H]1N2C , report its pEC50.
(A) < 4.52

====

biological target: coca-5HT3 (α7(L141G,G175K,Y210F,Y217F)–5HT3) (Homo sapiens, UniProt P36544, G175K/L141G/Y210F/Y217F); experiment: Membrane potential assay, coca-5HT3 in HEK293; conditions: coca-5HT3; conc 11.1 uM; ED Fig 3b
Cut-off 0.06 on Max normalized Response: below means y, at or above means n.

(Q) Hello, is Max normalized Response of the following compound strictly smaller than 0.06? CCN(CC)CC(=O)Nc1c(C)cccc1C [Lidocaine]
(A) n

(Q) Take the compound C[N+]1(C)[C@@H]2CC[C@H]1C[C@@H](OC(=O)C(CO)c1ccccc1)C2 (some centres unmarked) [Methylatropine] and say whether its Max normalized Response is less than 0.06.
(A) n

(Q) Does CN1[C@@H]2C[C@@H](OC(=O)[C@H](CO)c3ccccc3)C[C@H]1[C@@H]1O[C@@H]12 [Scopolamine] have Max normalized Response strictly under 0.06?
(A) y

(Q) Dear reviewer, please state whether CCN(CC)CCOC(=O)c1ccc(N)cc1 [Procaine] has Max normalized Response strictly beneath 0.06.
(A) n

====

target: α7–GlyR mutant chimeric channels (Homo sapiens, UniProt P36544, P216V); experiment: Membrane potential assay screen, mutant α7–GlyR chimeric channels; assay type: cell-based; conditions: EC50 at α7 GlyR P216V, sheet 1d; single determinations
pEC50: −log10 of the molar value.
property: pEC50

(Q) What value of pEC50 has been reported for the following molecule? COC(=O)[C@H]1[C@@H](OC(=O)c2ccccc2)C[C@@H]2CC[C@H]1N2C
(A) < 4.52

====

target: α7–GlyR mutant chimeric channels (Homo sapiens, UniProt P36544, W77F); assay: Membrane potential assay screen, mutant α7–GlyR chimeric channels; assay type: cell-based; details: EC50 at a7 GlyR W77F, Avg, sheet 1d
Sequence (P36544 23-230 W77F, one chain of several): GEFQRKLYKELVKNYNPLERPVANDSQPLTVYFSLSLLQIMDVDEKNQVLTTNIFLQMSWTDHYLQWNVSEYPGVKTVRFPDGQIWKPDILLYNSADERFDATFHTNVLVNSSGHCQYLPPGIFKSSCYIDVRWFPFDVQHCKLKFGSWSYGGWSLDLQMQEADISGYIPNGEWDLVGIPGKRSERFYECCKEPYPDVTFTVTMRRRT
property: pEC50
Answer as the number alone; pEC50 is minus log10 of concentration in mol/L.

(Q) GET /values?readout=pEC50&item= COC(=O)[C@H]1[C@@H](OC(=O)c2ccccc2)C[C@@H]2CC[C@H]1N2C
(A) 5.47

====

biological target: α7–5HT3 mutant chimeric channels (Homo sapiens, UniProt P36544, Q79G); assay: cell-based; type: cell-based, human α7 nAChR LBD, mouse 5HT3 IPD
Sequence (P36544 23-224 Q79G): as the sequence (P36544 23-224 L141G/G175K/Y210F/Y217F) above, with Q57G, G119L, K153G, F188Y, F195Y counted along it
Sequence (P23979 242-489, further chain): as the sequence (P23979 242-489, further chain) above
pEC50: −log10 of the molar value.
property: pEC50

(Q) Please report the recorded pEC50 for COC(=O)[C@H]1[C@@H](OC(=O)c2ccccc2)C[C@@H]2CC[C@H]1N2C .
(A) < 4.52

====

biological target: α7–5HT3 mutant chimeric channels (Homo sapiens, UniProt P36544, L141S); assay: cell-based; type: cell-based, human α7 nAChR LBD, mouse 5HT3 IPD
Sequence (P36544 23-224 L141S, one chain of several): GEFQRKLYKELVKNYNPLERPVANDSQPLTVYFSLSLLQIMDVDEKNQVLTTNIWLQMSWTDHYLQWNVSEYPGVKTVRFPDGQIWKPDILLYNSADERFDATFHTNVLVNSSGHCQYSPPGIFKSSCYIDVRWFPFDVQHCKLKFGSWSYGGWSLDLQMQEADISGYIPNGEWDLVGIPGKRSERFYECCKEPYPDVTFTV
property: EC50

(Q) Entry COC(=O)[C@H]1[C@@H](OC(=O)c2ccccc2)C[C@@H]2CC[C@H]1N2C [cocaine] has what EC50?
(A) > 30 µM

====

target: α7–5HT3 mutant chimeric channels (Homo sapiens, UniProt P36544, S170E); test: cell-based
Sequence (P36544 23-224 S170E, one chain of several): as the sequence (P36544 23-224 L141S, one chain of several) above, with S119L, S148E counted along it
pEC50: −log10 of the molar value.
property: pEC50

(Q) Query: pEC50; subject: COC(=O)[C@H]1[C@@H](OC(=O)c2ccccc2)C[C@@H]2CC[C@H]1N2C
(A) < 4.52

====

target: α7–5HT3 mutant chimeric channels (Homo sapiens, UniProt P36544, W77L); assay: cell-based; format: cell-based, human α7 nAChR LBD, mouse 5HT3 IPD; settings: read-out: EC50 at a7 5HT3 W77L, Avg; sheet 1d; Avg
Sequence (P36544 23-224 W77L): as the sequence (P36544 23-224 L141G/G175K/Y210F/Y217F) above, with W55L, G119L, K153G, F188Y, F195Y counted along it
Sequence (P23979 242-489, further chain): as the sequence (P23979 242-489, further chain) above
pEC50: −log10 of the molar value.
property: pEC50

(Q) Any idea what its pEC50 is? The molecule is COC(=O)[C@H]1[C@@H](OC(=O)c2ccccc2)C[C@@H]2CC[C@H]1N2C [cocaine]
(A) < 4.52

====

biological target: α7–GlyR mutant chimeric channels (Homo sapiens, UniProt P36544, L141A); test: Membrane potential assay screen, mutant α7–GlyR chimeric channels; assay type: cell-based; conditions: EC50 at α7 GlyR L141A, Avg, sheet 1d
Sequence (P36544 23-230 L141A): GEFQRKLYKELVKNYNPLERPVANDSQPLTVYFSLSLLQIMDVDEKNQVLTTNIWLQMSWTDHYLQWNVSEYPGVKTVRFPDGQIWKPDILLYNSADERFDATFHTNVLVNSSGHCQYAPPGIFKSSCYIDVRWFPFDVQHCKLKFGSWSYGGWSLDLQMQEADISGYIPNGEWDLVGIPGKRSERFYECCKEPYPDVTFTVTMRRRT
Sequence (P23415 247-457 partner): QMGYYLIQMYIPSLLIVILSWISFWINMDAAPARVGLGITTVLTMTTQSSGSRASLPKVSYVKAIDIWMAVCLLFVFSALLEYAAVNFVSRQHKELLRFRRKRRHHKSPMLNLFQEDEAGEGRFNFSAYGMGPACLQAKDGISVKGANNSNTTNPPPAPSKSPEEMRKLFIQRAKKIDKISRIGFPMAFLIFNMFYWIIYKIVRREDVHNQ
property: EC50 (µM)
Entry rule: numbers only, all in µM.

(Q) // lookup EC50 for COC(=O)[C@H]1[C@@H](OC(=O)c2ccccc2)C[C@@H]2CC[C@H]1N2C [cocaine]
(A) 5

====

target: α7–5HT3 mutant chimeric channels (Homo sapiens, UniProt P36544, Q79A); assay: cell-based; type: cell-based, human α7 nAChR LBD, mouse 5HT3 IPD
Sequence (P23979 242-489): as the sequence (P23979 242-489, further chain) above
Sequence (P36544 23-224 Q79A): as the sequence (P36544 23-224 L141G/G175K/Y210F/Y217F) above, with Q57A, G119L, K153G, F188Y, F195Y counted along it
property: EC50

(Q) Suppose we examine the molecule COC(=O)[C@H]1[C@@H](OC(=O)c2ccccc2)C[C@@H]2CC[C@H]1N2C ; what EC50 value has been reported?
(A) > 30 µM

====

biological target: α7–5HT3 mutant chimeric channels (Homo sapiens, UniProt P36544, Q139A); assay: cell-based; assay type: cell-based, human α7 nAChR LBD, mouse 5HT3 IPD
Sequence (P36544 23-224 Q139A, one chain of several): as the sequence (P36544 23-224 L141S, one chain of several) above, with Q117A, S119L counted along it
property: EC50

(Q) What value of EC50 has been reported for the following molecule? COC(=O)[C@H]1[C@@H](OC(=O)c2ccccc2)C[C@@H]2CC[C@H]1N2C [cocaine]
(A) > 30 µM

====

biological target: α7–GlyR mutant chimeric channels (Homo sapiens, UniProt P36544, L131F); test: Membrane potential assay screen, mutant α7–GlyR chimeric channels; format: cell-based; conditions: EC50 at α7GlyR L131F, Avg, sheet 1d
Sequence (P36544 23-228 L131F, one chain of several): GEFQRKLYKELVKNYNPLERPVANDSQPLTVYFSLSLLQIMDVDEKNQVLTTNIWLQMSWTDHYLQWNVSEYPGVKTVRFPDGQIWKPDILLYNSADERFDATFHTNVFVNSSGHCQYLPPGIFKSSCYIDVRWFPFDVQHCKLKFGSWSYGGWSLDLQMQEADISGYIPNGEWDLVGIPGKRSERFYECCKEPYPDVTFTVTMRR
property: EC50

(Q) Give recorded EC50 with α7–GlyR mutant chimeric channels (Homo sapiens, UniProt P36544, L131F) for the following molecule: COC(=O)[C@H]1[C@@H](OC(=O)c2ccccc2)C[C@@H]2CC[C@H]1N2C
(A) > 30 µM

====

target: coca-5HT3 (α7(L141G,G175K,Y210F,Y217F)–5HT3) (Homo sapiens, UniProt P36544, G175K/L141G/Y210F/Y217F); experiment: Membrane potential assay, coca-5HT3 in HEK293; conditions: coca-5HT3; conc 333.333 uM; ED Fig 3a
label 1 means recorded Response is 0.06 or above; label 0 means it is below 0.06.

(Q) Quick check: does NCCCC(=O)O have Response greater than or equal to 0.06?
(A) label 0

(Q) Please check the record NCCc1c[nH]cn1 and state if its Response is at or above 0.06.
(A) label 0

(Q) Is Response at least 0.06? Consider NC[C@H](O)c1ccc(O)c(O)c1 [Norepinephrine]
(A) label 0

(Q) State whether the measured Response reaches 0.06, counting equality as reaching it, for N[C@@H](CCC(=O)O)C(=O)O [Glutmate]
(A) label 0

(Q) Exam item: decide whether the reported Response for CCCCC/C=C\C/C=C\C/C=C\C/C=C\CCCC(=O)NCCO [Anandamide] is at least 0.06.
(A) label 0

(Q) # check: Response of N[C@@H](CC(=O)O)C(=O)O [Aspartate] is greater than or equal to 0.06
(A) label 1

(Q) Textbook exercise: given the entry NCC(=O)O , state whether its Response is greater than or equal to 0.06.
(A) label 1

(Q) Given the entry NCCc1c[nH]c2ccc(O)cc12 , answer whether its Response meets or surpasses 0.06.
(A) label 1

(Q) Please indicate if the recorded Response for NCCc1ccc(O)c(O)c1 meets or exceeds 0.06.
(A) label 0
